Examples of compounds with documented IC50 follow.
# procedureText: Antiproliferative activity against human MKN45 cells after 72 hrs by MTT assay
# Assay type: functional, cell-based
# conditionDetails: MKN-45, 72 h
observedProperty: IC50

[[record]]
linenotation = "CCN(CC)Cc1ccc2nc(NC(=O)N/N=C/c3ccc(OCc4ccc(Cl)cc4Cl)cc3O)sc2c1"
observed = "520 nM"

[[record]]
linenotation = "CCN(CC)Cc1ccc2nc(NC(=O)N/N=C/c3ccc(OCc4ccc(Cl)cc4)cc3O)sc2c1"
observed = "540 nM"

[[record]]
linenotation = "CN(C)Cc1ccc2nc(NC(=O)N/N=C/c3ccccc3O)sc2c1"
observed = "1540 nM"

[[record]]
linenotation = "CC1CCN(Cc2ccc3nc(NC(=O)N/N=C/c4ccc(OCc5ccc(Cl)cc5)cc4O)sc3c2)CC1"
observed = "210 nM"

[[record]]
linenotation = "CC1CCN(Cc2ccc3nc(NC(=O)N/N=C/c4ccc(OCc5cccc(Cl)c5)cc4O)sc3c2)CC1"
observed = "670 nM"

[[record]]
linenotation = "O=C(N/N=C/c1ccc(OCc2csc(Cc3ccc4c(c3)OCO4)n2)cc1O)Nc1nc2ccc(N3CCOCC3)cc2s1"
observed = "1010 nM"

[[record]]
linenotation = "CCN(CC)Cc1ccc2nc(NC(=O)N/N=C/c3ccc(OCc4cccc(Cl)c4)cc3O)sc2c1"
observed = "420 nM"

[[record]]
linenotation = "Cc1ccc(COc2ccc(/C=N/NC(=O)Nc3nc4ccc(CN(C)C)cc4s3)c(O)c2)cc1"
observed = "1270 nM"

[[record]]
linenotation = "O=C(N/N=C/c1ccccc1O)Nc1nc2ccc(N3CCOCC3)cc2s1"
observed = "9310 nM"

[[record]]
linenotation = "CC1CCN(Cc2ccc3nc(NC(=O)N/N=C/c4ccc(OCc5ccccc5Cl)cc4O)sc3c2)CC1"
observed = "760 nM"

[[record]]
linenotation = "CN(C)Cc1ccc2nc(NC(=O)N/N=C/c3ccc(OCc4csc(Cc5ccc6c(c5)OCO6)n4)cc3O)sc2c1"
observed = "620 nM"

[[record]]
linenotation = "CCN(CC)Cc1ccc2nc(NC(=O)N/N=C/c3ccccc3O)sc2c1"
observed = "1710 nM"

[[record]]
linenotation = "CN(C)Cc1ccc2nc(NC(=O)N/N=C/c3ccc(OCc4ccccc4Cl)cc3O)sc2c1"
observed = "330 nM"

[[record]]
linenotation = "CCN(CC)Cc1ccc2nc(NC(=O)N/N=C/c3ccc(O)cc3O)sc2c1"
observed = "1740 nM"

[[record]]
linenotation = "CC1CCN(Cc2ccc3nc(NC(=O)N/N=C/c4ccccc4O)sc3c2)CC1"
observed = "680 nM"

[[record]]
linenotation = "CN(C)Cc1ccc2nc(NC(=O)N/N=C/c3ccc(OCc4ccc(C(C)(C)C)cc4)cc3O)sc2c1"
observed = "1040 nM"

[[record]]
linenotation = "CC1CCN(Cc2ccc3nc(NC(=O)N/N=C/c4ccc(OCc5ccc(Cl)cc5Cl)cc4O)sc3c2)CC1"
observed = "280 nM"

[[record]]
linenotation = "CC1CCN(Cc2ccc3nc(NC(=O)N/N=C/c4ccc(OCc5ccc(C(C)(C)C)cc5)cc4O)sc3c2)CC1"
observed = "170 nM"

